- Tested on: THP1 cells
- experiment: Lipopolysaccharide-activated THP1 cell TNF production assay (THP1 cell based)
- measurement-setup: Homo sapiens, THP-1, LPS-induced TNF-α, actual values
pIC50: −log10 of the molar value.
The threshold is inclusive: pIC50 of exactly 9 counts as 1; values below receive 0.

CCn1c(=O)cc(Nc2cc(C(=O)NC3CC3)ccc2Cl)c2cnn(-c3ccc(F)cc3F)c21 [Example 27] = 1

Turning to the following molecule.
Reported pIC50 at or above 9? Cn1c(=O)cc(Oc2cc(C(=O)NC3CC3)ccc2Cl)c2cnn(-c3cc(F)ccc3F)c21 [Example 26]
0

---

Below, each entry is listed with its recorded pIC50.
- Test system: IL-1
- experiment: LPS induced IL-1 cell based assay (LPS-activated monocytes)
- measurement-setup: Homo sapiens, Monocyte; range symbols
pIC50: −log10 of the molar value.

Consider the reported pIC50 for these molecules:
Cn1c(=O)cc(Nc2cc(C(=O)NC3CC3)ccc2Cl)c2cnn(-c3ccc(F)cc3F)c21 [Example 13] = > 7.60
Cc1ccc(C(=O)NC2CC2)cc1Oc1cc(=O)n(C)c2c1cnn2-c1c(F)cccc1F [Example 16] = 7.00 to 7.60
Cc1ccc(C(=O)NC(C)(C)C)cc1Nc1cc(=O)n(C)c2c1cnn2-c1ccc(F)cc1F [Example 25] = 6.60 to 7.00

Read the entry Cn1c(=O)cc(Nc2cc(C(=O)NC3CC3)ccc2Cl)c2cnn(-c3cc(F)ccc3F)c21 [Example 12] and write its reported pIC50.
> 7.60

---

- Tested on: THP1 cells
- experiment: Lipopolysaccharide-activated THP1 cell TNF production assay (THP1 cell based)
- measurement-setup: Homo sapiens, THP-1, LPS-induced TNF-α, range symbols
pIC50: −log10 of the molar value.
measured-parameter: pIC50

Consider the reported pIC50 for these molecules:
Cc1ccc(C(=O)NC2CC2)cc1Nc1cc(=O)n(C)c2c1cnn2-c1ccc(F)cc1F = > 7.60
Cc1ccc(C(=O)NC2CC2)cc1Oc1cc(=O)n(C)c2c1cnn2-c1cccc(F)c1 = > 7.60

Read the entry Cc1ccc(C(N)=O)cc1Nc1cc(=O)n(C)c2c1cnn2-c1cc(F)ccc1F and write its reported pIC50.
> 7.60

Read the entry Cc1ccc(C(N)=O)cc1Nc1cc(=O)n(C)c2c1cnn2-c1ccc(F)cc1F and write its reported pIC50.
> 7.60

Read the entry Cn1c(=O)cc(Nc2ccc(F)cc2)c2cnn(-c3c(F)cccc3F)c21 and write its reported pIC50.
6.00 to 6.60

Read the entry Cc1ccc(C(=O)O)cc1Nc1cc(=O)n(C)c2c1cnn2-c1ccc(F)cc1F and write its reported pIC50.
5.30 to 6.00

Read the entry Cn1c(=O)cc(Nc2cc(C(=O)NC3CC3)ccc2Cl)c2cnn(-c3c(F)cccc3F)c21 and write its reported pIC50.
> 7.60

Read the entry Cc1ccc(C(=O)NC2CC2)cc1Oc1cc(=O)n(C)c2c1cnn2-c1ccc(F)cc1F and write its reported pIC50.
> 7.60

---

- Tested on: IL-1
- experiment: LPS induced IL-1 cell based assay (LPS-activated monocytes)
- measurement-setup: Homo sapiens, Monocyte; range symbols
- Method: Lipopolysaccharide-Activated Monocyte TNF Production Assay Test compounds were evaluated in vitro for the ability to inhibit the production of TNF by monocytes activated with bacterial lipopolysaccharide (LPS). […] One hundred microliters of each test compound dilution were added to microtiter wells containing adherent monocytes and 100 μL complete medium. […] Culture supernatants were then removed and TNF presence in the supernatants was quantified using an ELISA. […]
pIC50: −log10 of the molar value.
Below, each entry is listed with its recorded pIC50.

Consider the reported pIC50 for these compounds:
Cc1ccc(C(=O)NC2CC2)cc1Oc1cc(=O)n(C)c2c1cnn2-c1cccc(F)c1 [Example 5] = 6.60 to 7.00
CCn1c(=O)cc(Oc2cc(C(=O)NC3CC3)ccc2C)c2cnn(-c3ccc(F)cc3)c21 [Example 24] = 7.00 to 7.60
Cc1ccc(C(=O)NC2CC2)cc1Nc1cc(=O)n(C)c2c1cnn2-c1c(F)cccc1F [Example 15] = > 7.60
Cn1c(=O)cc(Nc2cc(C(=O)NC3CC3)ccc2Cl)c2cnn(-c3c(F)cccc3F)c21 [Example 11] = > 7.60
Cc1ccc(C(N)=O)cc1Nc1cc(=O)n(C)c2c1cnn2-c1ccc(F)cc1F [Example 18] = > 7.60
Cn1c(=O)cc(Nc2cc(C(=O)NC3CC3)ccc2F)c2cnn(-c3ccc(F)cc3F)c21 [Example 7] = 7.00 to 7.60
Cc1ccc(C(=O)O)cc1Nc1cc(=O)n(C)c2c1cnn2-c1ccc(F)cc1F [Example 17] = 5.30 to 6.00
Cn1c(=O)cc(Nc2ccc(F)cc2)c2cnn(-c3c(F)cccc3F)c21 [Example 10] = 5.30 to 6.00

Kindly review the next compound as well.
Read the entry CCn1c(=O)cc(Nc2cc(C(=O)NC3CC3)ccc2C)c2cnn(-c3ccc(F)cc3)c21 [Example 23] and write its reported pIC50.
> 7.60

---

- System: THP1 cells
- experiment: Lipopolysaccharide-activated THP1 cell TNF production assay (THP1 cell based)
- measurement-setup: Homo sapiens, THP-1, LPS-induced TNF-α, actual values
Below, each entry is listed with its recorded IC50.
Hi! Could you send only the number? It should be in nM, unit omitted.

Consider the reported IC50 for these compounds:
CONC(=O)c1ccc(C)c(Nc2cc(=O)n(C)c3c2cnn3-c2ccc(F)cc2F)c1 [Example 30] = 0.6
CCn1c(=O)cc(Nc2cc(C(=O)NC3CC3)ccc2Cl)c2cnn(-c3ccc(F)cc3)c21 [Example 29] = 1.4

Kindly review the next compound as well.
State IC50 on THP1 cells. Entry: Cn1c(=O)cc(Nc2cc(C(=O)NC3CC3)ccc2Cl)c2cnn(-c3ccc(F)cc3)c21 [Example 28]
0.8
